molecules and their reported pIC50
# assayed-target: RON (Homo sapiens, UniProt Q04912)
# Sequence (Q04912 25-1400): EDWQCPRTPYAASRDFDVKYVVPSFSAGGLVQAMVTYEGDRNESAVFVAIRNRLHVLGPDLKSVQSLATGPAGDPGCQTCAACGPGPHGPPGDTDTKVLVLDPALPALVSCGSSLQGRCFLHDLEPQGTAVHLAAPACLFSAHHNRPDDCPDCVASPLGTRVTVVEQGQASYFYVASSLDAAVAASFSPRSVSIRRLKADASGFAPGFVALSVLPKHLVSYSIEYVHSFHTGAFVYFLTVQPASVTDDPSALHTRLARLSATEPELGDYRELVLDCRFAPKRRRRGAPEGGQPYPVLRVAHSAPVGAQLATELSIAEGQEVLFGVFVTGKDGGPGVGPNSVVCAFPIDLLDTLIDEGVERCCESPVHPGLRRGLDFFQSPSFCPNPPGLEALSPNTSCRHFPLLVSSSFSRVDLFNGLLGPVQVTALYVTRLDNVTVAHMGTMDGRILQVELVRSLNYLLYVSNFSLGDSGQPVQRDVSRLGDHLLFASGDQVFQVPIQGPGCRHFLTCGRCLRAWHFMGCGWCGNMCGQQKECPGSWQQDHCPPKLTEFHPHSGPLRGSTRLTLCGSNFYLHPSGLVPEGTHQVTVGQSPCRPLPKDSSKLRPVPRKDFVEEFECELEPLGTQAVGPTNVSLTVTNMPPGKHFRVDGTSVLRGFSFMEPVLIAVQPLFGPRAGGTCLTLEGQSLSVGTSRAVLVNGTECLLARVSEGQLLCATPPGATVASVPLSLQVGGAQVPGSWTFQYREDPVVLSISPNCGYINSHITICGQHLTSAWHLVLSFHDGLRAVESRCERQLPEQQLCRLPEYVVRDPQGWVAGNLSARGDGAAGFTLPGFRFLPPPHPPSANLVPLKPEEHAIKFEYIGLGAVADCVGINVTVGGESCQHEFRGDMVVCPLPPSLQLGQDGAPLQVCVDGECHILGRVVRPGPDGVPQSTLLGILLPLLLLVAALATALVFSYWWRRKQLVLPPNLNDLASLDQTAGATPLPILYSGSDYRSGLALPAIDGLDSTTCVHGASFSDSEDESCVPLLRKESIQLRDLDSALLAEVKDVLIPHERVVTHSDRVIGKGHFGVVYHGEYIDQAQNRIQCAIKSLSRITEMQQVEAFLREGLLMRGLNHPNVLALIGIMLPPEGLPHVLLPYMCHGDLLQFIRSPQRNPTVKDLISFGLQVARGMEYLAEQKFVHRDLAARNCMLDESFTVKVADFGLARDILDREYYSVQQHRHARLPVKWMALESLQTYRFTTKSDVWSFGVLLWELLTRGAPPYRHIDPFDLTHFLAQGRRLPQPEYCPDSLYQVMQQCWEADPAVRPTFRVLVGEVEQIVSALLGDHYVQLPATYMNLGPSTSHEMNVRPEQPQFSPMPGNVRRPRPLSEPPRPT
pIC50: −log10 of the molar value.

molecule: CC(Oc1ccc2nc(NC(=O)NCCCN(C)C)sc2c1)c1c(Cl)ccc(F)c1Cl (stereo not shown)
pIC50: > 6.30

molecule: CC(Oc1ccc2nc(NC(=O)C3CC3)sc2c1)c1c(Cl)ccc(F)c1Cl (stereo not shown)
pIC50: 5.00 to 6.30

Ask | // Input: CC(Oc1cc2sc(NC(=O)NCCN3CCOCC3)nc2cc1Cl)c1c(Cl)ccc(F)c1Cl (stereo not shown) . Output its pIC50 only.
Reply | 5.00 to 6.30

Ask | // Input: CCN(CC)CCCOC(=O)Nc1nc2cc(F)c(OC(C)c3c(Cl)ccc(F)c3Cl)cc2s1 (stereo not shown) . Output its pIC50 only.
Reply | 5.00 to 6.30

====

# assayed-target: c-MET (Homo sapiens, UniProt P08581)
# Construct: The recombinant DNA His-Tev-MET (956-1390) in pFastBac(Invitrogen); His (N, cleaved yes); Tev (TEV protease site) (N, cleaved yes); made in house; host or cells: SF21 insect cells (baculovirus, pFastBac)
# Sequence (P08581 956-1390): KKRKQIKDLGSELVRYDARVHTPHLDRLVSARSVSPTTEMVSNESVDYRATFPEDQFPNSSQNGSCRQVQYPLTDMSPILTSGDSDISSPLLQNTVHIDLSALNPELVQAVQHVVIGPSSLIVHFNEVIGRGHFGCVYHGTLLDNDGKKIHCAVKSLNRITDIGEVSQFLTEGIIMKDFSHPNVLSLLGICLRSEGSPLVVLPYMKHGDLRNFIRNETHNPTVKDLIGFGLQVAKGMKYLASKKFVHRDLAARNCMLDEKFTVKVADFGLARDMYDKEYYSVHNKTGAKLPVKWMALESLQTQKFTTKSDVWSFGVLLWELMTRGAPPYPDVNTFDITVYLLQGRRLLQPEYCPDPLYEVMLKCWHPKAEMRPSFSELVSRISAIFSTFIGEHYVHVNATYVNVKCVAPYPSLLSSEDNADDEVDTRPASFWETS
# test-summary: Test A: HTRF Met test in 96-well format
# Type: biochemical
value-type: IC50

compound: CC(Oc1ccc2nc(NC(=O)NCCN3CCCCCC3)sc2c1)c1c(Cl)ccc(F)c1Cl (stereo not shown)
IC50: < 100 nM

Ask | // Input: C[C@@H](Oc1cc2sc(NC(=O)NCCN3CCOCC3)nc2cc1F)c1c(Cl)ccc(F)c1Cl (single isomer, unassigned) [Example 32] . Output its IC50 only.
Reply | < 100 nM

Ask | // Input: CC(Oc1ccc2nc(NC(=O)NCCN3CCNCC3)sc2c1)c1c(Cl)ccc(F)c1Cl.O=C(O)C(F)(F)F (stereo not shown) [Example 37, trifluoroacetate] . Output its IC50 only.
Reply | 100 to 10000 nM

Ask | // Input: CC(Oc1cc2sc(NC(=O)NCCN3CCOCC3)nc2cc1F)c1c(Cl)ccc(F)c1Cl (stereo not shown) . Output its IC50 only.
Reply | < 100 nM

Ask | // Input: CC(Oc1cc2sc(NC(=O)NCCO)nc2cc1F)c1c(Cl)ccc(F)c1Cl (single isomer, unassigned) [Example 99] . Output its IC50 only.
Reply | < 100 nM

Ask | // Input: CC(Oc1ccc2nc(NC(=O)NCCCN(C)C)sc2c1)c1c(Cl)ccc(F)c1Cl (stereo not shown) . Output its IC50 only.
Reply | < 100 nM

Ask | // Input: CC(Oc1ccc2nc(NC(=O)NCCN3CCOCC3)[nH]c2c1)c1c(Cl)cccc1Cl (stereo not shown) . Output its IC50 only.
Reply | < 100 nM

Ask | // Input: CNCCNC(=O)Nc1nc2cc(F)c(OC(C)c3c(Cl)ccc(F)c3Cl)cc2s1 (stereo not shown) . Output its IC50 only.
Reply | < 100 nM

Ask | // Input: CC(Oc1ccc2nc(NC(=O)NCc3ccccn3)sc2c1)c1c(Cl)ccc(F)c1Cl (stereo not shown) . Output its IC50 only.
Reply | < 100 nM

====

Quick record of pIC50 values for RON (Homo sapiens, UniProt Q04912).
pIC50: −log10 of the molar value.

molecule: CCN(CC)CCNC(=O)Nc1nc2ccc(OC(C)c3c(Cl)ccc(F)c3Cl)cc2s1 (stereo not shown)
assayed-target: RON (Homo sapiens, UniProt Q04912)
pIC50: 5.00 to 6.30

molecule: CC(Oc1cc2sc(NC(=O)NCCO)nc2cc1F)c1c(Cl)ccc(F)c1Cl (single isomer, unassigned)
assayed-target: RON (Homo sapiens, UniProt Q04912)
pIC50: > 6.30

molecule: CC(Oc1ccc2nc(NC(=O)NCCC3CCCN3C)sc2c1)c1c(F)ccc(Cl)c1Cl (stereo not shown)
assayed-target: RON (Homo sapiens, UniProt Q04912)
pIC50: > 6.30

molecule: CC(Oc1ccc2nc(NC(=O)NCCN3CCCC3)sc2c1)c1c(F)ccc(Cl)c1Cl (stereo not shown)
assayed-target: RON (Homo sapiens, UniProt Q04912)
pIC50: > 6.30

molecule: CC(Oc1cc2sc(NC(=O)NCCN3CCCC3)nc2cc1F)c1c(F)ccc(Cl)c1Cl (single isomer, unassigned) [Example 119]
assayed-target: RON (Homo sapiens, UniProt Q04912)
pIC50: 5.00 to 6.30

Ask | // Input: CCN(CC)CCCNC(=O)Nc1nc2ccc(OC(C)c3c(Cl)ccc(F)c3Cl)cc2s1 (stereo not shown) . Output its pIC50 only.
Reply | 5.00 to 6.30

Ask | // Input: CC(Oc1ccc2nc(NC(=O)NCCCN3CCC(Cc4ccccc4)CC3)sc2c1)c1c(Cl)ccc(F)c1Cl (stereo not shown) . Output its pIC50 only.
Reply | 5.00 to 6.30

====

value-type: melting point (°C)

compound: CC(Oc1ccc2nc(NC(=O)NCCN3CCOCC3)sc2c1)c1c(Cl)ccc(Cl)c1Cl (centres unmarked)
melting point, °C: 189

compound: CC(Oc1cc2sc(N)nc2cc1F)c1c(Cl)ccc(F)c1Cl (centres unmarked)
melting point, °C: 223

compound: O=C(Nc1nc2ccc(OCc3c(Cl)cccc3Cl)cc2s1)C1CC1
melting point, °C: 178

compound: CCC(Oc1ccc2nc(NC(=O)NCCN3CCOCC3)sc2c1)c1c(Cl)cccc1Cl (centres unmarked)
melting point, °C: 200

compound: CC(Oc1cc2sc(NC(=O)NCCN)nc2cc1F)c1c(Cl)ccc(F)c1Cl (centres unmarked)
melting point, °C: 178

compound: CC(Oc1ccc2nc(NC(=O)NCCN3CCOCC3)sc2c1)c1c(F)ccc(Cl)c1Cl (centres unmarked)
melting point, °C: 200

compound: CC(Oc1cc2sc(NC(=O)NCCN3CCCC3)nc2cc1F)c1c(F)ccc(Cl)c1Cl (centres unmarked)
melting point, °C: 191

====

# assayed-target: c-MET (Homo sapiens, UniProt P08581)
# Construct: The recombinant DNA His-Tev-MET (956-1390) in pFastBac(Invitrogen); His (N, cleaved yes); Tev (TEV protease site) (N, cleaved yes)
# test-summary: Test A: HTRF Met test in 96-well format
compounds and their reported IC50

Worked examples follow.
compound: CC(Oc1ccc2nc(NC(=O)NCCN3CCOCC3)sc2c1)c1c(Cl)ccc(F)c1Cl (single isomer, unassigned) [Example 25]
IC50: < 100 nM
//
compound: CCN1CCN(CCNC(=O)Nc2nc3cc(F)c(OC(C)c4c(Cl)ccc(F)c4Cl)cc3s2)CC1 (centres unmarked) [Example 100]
IC50: < 100 nM

Ask | // Input: CC(Oc1cc2sc(NC(=O)NCCN3CCN(C)CC3)nc2cc1F)c1c(Cl)ccc(F)c1Cl (single isomer, unassigned) [Example 76] . Output its IC50 only.
Reply | < 100 nM

Ask | // Input: Cc1ccc(F)c(C(C)Oc2ccc3nc(N)sc3c2)c1Cl (centres unmarked) [Example 27] . Output its IC50 only.
Reply | 100 to 10000 nM

Ask | // Input: CC(Oc1ccc2nc(NC(=O)OCCN3CCOCC3)sc2c1)c1c(Cl)ccc(F)c1Cl (centres unmarked) [Example 74] . Output its IC50 only.
Reply | < 100 nM

Ask | // Input: CC(Oc1cc2sc(NC(=O)NCCN3CCOCC3)nc2cc1F)c1c(Cl)cccc1Cl (centres unmarked) [Example 29] . Output its IC50 only.
Reply | < 100 nM

Ask | // Input: CC(Oc1ccc2nc(NC(=O)NCCC3CCN(Cc4ccccc4)CC3)sc2c1)c1c(Cl)ccc(F)c1Cl (centres unmarked) [Example 52] . Output its IC50 only.
Reply | < 100 nM

Ask | // Input: Nc1nc2ccc(OCc3c(F)cccc3Cl)cc2s1 [Example 8] . Output its IC50 only.
Reply | 100 to 10000 nM

====

value-type: melting point (°C)

molecule: CNCCCNC(=O)Nc1nc2cc(F)c(OC(C)c3c(Cl)ccc(F)c3Cl)cc2s1 (centres unmarked) [Example 127]
reported-value: 183

molecule: Nc1nc2ccc(OCc3c(F)cccc3F)cc2s1 [Example 12]
reported-value: 178

====

Where a name gives a salt, the structure may show the parent alone.
Quick record of IC50 values for RON (Homo sapiens, UniProt Q04912).

Worked examples follow.
molecule: CC(Oc1ccc2nc(NC(=O)NCCN3CCOCC3)sc2c1)c1c(Cl)cccc1Cl (stereo not drawn)
reported-value: < 500 nM
--
molecule: CC(Oc1ccc2nc(NC(=O)NCCN3CCNCC3)sc2c1)c1c(Cl)ccc(F)c1Cl.O=C(O)C(F)(F)F (stereo not drawn) [Example 37, trifluoroacetate]
reported-value: < 500 nM
--
molecule: CC(Oc1cc2sc(NC(=O)NCCN3CCCC3)nc2cc1F)c1c(F)ccc(Cl)c1Cl (stereo not drawn) [Example 118]
reported-value: < 500 nM
--
molecule: CC(Oc1ccc2nc(NC(=O)NCCN3CCN(Cc4ccccc4)CC3)sc2c1)c1c(Cl)ccc(F)c1Cl (stereo not drawn)
reported-value: 500 to 10000 nM
--
molecule: CCN1CCN(CCNC(=O)Nc2nc3cc(F)c(OC(C)c4c(Cl)ccc(F)c4Cl)cc3s2)CC1 (single isomer, unassigned)
reported-value: 500 to 10000 nM
--
molecule: O=C(Nc1nc2ccc(OCc3c(Cl)cccc3Cl)cc2[nH]1)C1CC1
reported-value: 500 to 10000 nM
--
molecule: CC(Oc1ccc2nc(NC(=O)NCCCN3CCN(Cc4ccccc4)CC3)sc2c1)c1c(Cl)ccc(F)c1Cl (stereo not drawn)
reported-value: 500 to 10000 nM
--
molecule: O=C(NCCCN1CCOCC1)Nc1nc2ccc(OCc3c(Cl)cccc3Cl)cc2s1
reported-value: 500 to 10000 nM

Ask | Report value: IC50, system: RON (Homo sapiens, UniProt Q04912), molecule: CC(Oc1ccc2nc(NC(=O)OCCN3CCOCC3)sc2c1)c1c(Cl)ccc(F)c1Cl (stereo not drawn)
Reply | 500 to 10000 nM

Ask | Report value: IC50, system: RON (Homo sapiens, UniProt Q04912), molecule: `O=C(NCCN1CCOCC1)Nc1nc2cc(F)c(OCc3c(Cl)cccc3Cl)cc2s1`
Reply | 500 to 10000 nM

Ask | Report value: IC50, system: RON (Homo sapiens, UniProt Q04912), molecule: CC(Oc1ccc2nc(NC(=O)NCCC3CCNCC3)sc2c1)c1c(Cl)ccc(F)c1Cl (stereo not drawn) [Example 39, trifluoroacetate]
Reply | < 500 nM

Ask | Report value: IC50, system: RON (Homo sapiens, UniProt Q04912), molecule: CC(Oc1ccc2nc(NC(=O)CCCN3CCOCC3)sc2c1)c1c(Cl)ccc(F)c1Cl (stereo not drawn)
Reply | 500 to 10000 nM

Ask | Report value: IC50, system: RON (Homo sapiens, UniProt Q04912), molecule: CC(Oc1cc2sc(NC(=O)NCCN3CCOCC3)nc2cc1F)c1c(F)ccc(Cl)c1Cl (single isomer, unassigned)
Reply | 500 to 10000 nM

Ask | Report value: IC50, system: RON (Homo sapiens, UniProt Q04912), molecule: CC(Oc1ccc2nc(NC(=O)NCCN3CCCCC3)sc2c1)c1c(Cl)ccc(F)c1Cl (stereo not drawn)
Reply | 500 to 10000 nM

Ask | Report value: IC50, system: RON (Homo sapiens, UniProt Q04912), molecule: C[C@@H](Oc1cc2sc(NC(=O)NCCN3CCOCC3)nc2cc1F)c1c(Cl)ccc(F)c1Cl (single isomer, unassigned)
Reply | < 500 nM
